In this section, each of the compounds is paired with its reported solubility kinetic.
# experimental.context: buffer; pH 7.4; 200.0 µM
assay.metric: solubility kinetic (mg/mL)

smiles.text | result.comparator | endpoint.result
COc1ccc2cc(C(=O)NCCCN3CCCC3=O)[nH]c2c1 | > | 0.0473
Cc1ccc(C(=O)Nc2ccc(F)c(S(=O)(=O)N3CCOCC3)c2)s1 | = | 0.0053
O=C1CC2(CCN(C(=O)COc3ccc(F)cc3)CC2)Oc2ccccc21 | > | 0.0554
Cc1nc2ccc(NC(=O)Cc3cccc(F)c3)cc2s1 | = | 0.0115
O=C(C1CCC1)N1CCC(O)(c2cccc(F)c2)CC1 | = | 0.0394
Cc1nn(CC(=O)N2CCc3ccccc32)c(C)c1S(=O)(=O)NC(C)(C)C | > | 0.0586

* * *

# experimental.context: buffer; pH 7.4; 200.0 µM
In this section, each of the molecules is paired with its reported log10(solubility kinetic).
assay.metric: log10(solubility kinetic) (log10 of the value in µg/mL)

molecule | endpoint.result
CCC(C)NC(=O)c1c(N)n(CCCOC)c2nc3ccccc3nc12 (configuration not stated) | 0.81
Cc1cc(NC(=O)/C=C/c2ccccc2)c(C(C)C)cc1O | 0.73
COCc1c(C(=O)N2CCN(c3ccccc3C)CC2)oc2ccccc12 | 0.96
COc1ccccc1C(=O)N1CCC(N2CCN(c3ccccc3)CC2)CC1 | 1.62
COc1ccccc1NS(=O)(=O)c1cc(NC(=O)c2cccnc2)ccc1N1CCCCC1 | 0.11

* * *

In this section, each of the molecules is paired with its reported solubility kinetic.
# experimental.context: buffer; pH 7.4; 200.0 µM
assay.metric: solubility kinetic (mg/mL)

molecule | assay.metric | result.comparator | endpoint.result
Cc1ccc(S(=O)(=O)Nc2ccc3ccccc3n2)cc1 | solubility kinetic | = | 0.0335
NC(=O)c1cccnc1Oc1ccc(Cl)cc1 | solubility kinetic | > | 0.0373
Cc1nc(SCC(=O)N2CCCC2=O)nc(C)c1C | solubility kinetic | > | 0.0419
O=S(=O)(c1ccccc1)N1CCN(c2ccccc2)CC1 | solubility kinetic | = | 0.0004
COc1ccc(NC(=O)COc2ccc3c(c2)CCC3)cc1 | solubility kinetic | = | 0.0027
O=c1c(Cc2ccc(Cl)cc2)c(O)ccn1Cc1cccs1 | solubility kinetic | = | 0.0046
Cc1cc(C)c(C(=O)Nc2ccc(C)c(C)c2)c(CC(C)(C)C(=O)O)c1 | solubility kinetic | > | 0.053
CN(C)c1cccc(Oc2nc3c(c(=O)n(C)c(=O)n3C)n2C)c1 | solubility kinetic | = | 0.0324
COc1cc(NC(=O)CN2C(=O)CN(C)C2=O)c(C)cc1[N+](=O)[O-] | solubility kinetic | > | 0.0504
O=C1/C(=C\c2ccc(O)cc2)SC(=S)N1Cc1ccccc1 | solubility kinetic | < | 0.0007
CC[N+](C)(C)c1cccc(O)c1.[Cl-] | solubility kinetic | > | 0.0303
CS(=O)(=O)c1ccccc1C(=O)Nc1nc2ccccc2[nH]1 | solubility kinetic | > | 0.0473
O=C(Nc1ccc(Cl)c(Cl)c1)c1ccco1 | solubility kinetic | = | 0.0085
CCOc1ccc(C(=O)COC(=O)CNC(=O)C2CCCCC2)cc1 | solubility kinetic | = | 0.0095
CC(C)NC(=O)C(=O)NCc1ccccn1 | solubility kinetic | > | 0.0332
Cc1cccc(C)c1NC(=O)C(=O)NCCc1c[nH]c2ccccc12 | solubility kinetic | = | 0.0013
O=C(Nc1nc(-c2ccc(F)c(F)c2)cs1)Nc1ccc(F)cc1F | solubility kinetic | < | 0.0003
N#CCc1ccc(NC(=O)c2ccc(CN3CCc4ccccc4C3)cc2)cc1 | solubility kinetic | = | 0.0016
Cc1ccc(C(=O)OCC(=O)NC2CCCC2)cc1C | solubility kinetic | = | 0.0158
C=CCNC(=S)N(C1CCCCC1)C1CCCCC1 | solubility kinetic | = | 0.021
Cc1cc(C)c(C(=O)C(C)OC(=O)c2ccccn2)cc1C (stereo not given) | solubility kinetic | = | 0.0177
CSc1ncc(C(=O)Nc2cc(C)ccc2C)c(C)n1 | solubility kinetic | > | 0.0431
O=C(COC(=O)c1cccnc1Cl)NC1CCCCCC1 | solubility kinetic | > | 0.0466
Nc1cc(-c2ccccc2)n2c(n1)nc1ccccc12 | solubility kinetic | = | 0.0057
COc1cc(OC)cc(C(=O)Nc2ccc3c(c2)OCCO3)c1 | solubility kinetic | = | 0.0448

* * *

# experimental.context: buffer; pH 7.4; 200.0 µM
assay.metric: solubility kinetic (µg/mL)

molecule | assay.metric | result.comparator | endpoint.result
O=[N+]([O-])c1ccc(N2CCN(c3ccc(F)cc3)CC2)cc1 | solubility kinetic | = | 0.3
O=C1CCCc2ccccc2N1Cc1ccccc1 | solubility kinetic | = | 37.5
C=CCn1c(O)c(/C=N/NC(=O)c2ccncc2)c(=O)[nH]c1=O | solubility kinetic | > | 47.3
O=[N+]([O-])c1ccc(Sc2ccc(F)cc2)nc1 | solubility kinetic | = | 0.7
O=C(Cc1ccc([N+](=O)[O-])cc1)NCC1CCCO1 (stereo not given) | solubility kinetic | > | 39.6
COC(=O)c1ccc(CSC(=N)N)o1 | solubility kinetic | = | 27.6
CCCCN(C(=O)C1COc2ccccc2O1)c1c(N)n(CCC)c(=O)[nH]c1=O (stereo not given) | solubility kinetic | > | 60.4
CCOC(=O)/C(=C/c1cn(C)c2ccccc12)NC(=O)c1ccccc1 | solubility kinetic | = | 3.2
Cc1ccc(NC(=O)C2CCCN2C(=O)NC2CCCCC2)cc1F (stereo not given) | solubility kinetic | = | 0.9
Cc1cc2nc3c(nc2cc1C)C(O)=C3O | solubility kinetic | = | 27.6
O=S(=O)(/N=C/c1c(O)ccc2ccccc12)c1ccccc1 | solubility kinetic | > | 46.7
COc1ccc(N2CCN(C(=O)c3cc(C)oc3C)CC2)cc1 | solubility kinetic | = | 42.2
COc1ccc2c(CC(=O)Nc3nccs3)coc2c1 | solubility kinetic | = | 7
CCOc1ncccc1C(=O)OC(C)C(=O)NC1CCCCC1 (stereo not given) | solubility kinetic | > | 48.1
O=S(N1CCc2ccccc21)C12CC3CC(CC(C3)C1)C2 (stereo not given) | solubility kinetic | = | 4.4
O=C(O)CCSc1ncnc2sc(-c3ccccc3)cc12 | solubility kinetic | > | 47.5
CN1CCc2c(sc(NC(=O)Cc3ccc(F)cc3)c2C(N)=O)C1.Cl | solubility kinetic | = | 52.6
COc1ccccc1C(=O)COC(=O)c1ccc(N(C)C)cc1 | solubility kinetic | = | 1.1
COc1cc2c(cc1OC)C(NC(=O)C(F)(F)F)CNC2=O (stereo not given) | solubility kinetic | > | 47.7
N#C/C(=C\C=C\c1ccccc1)C(=O)NCc1cccnc1 | solubility kinetic | = | 6.3
Cc1ccc(NC(=S)NC(=O)c2cncc(Br)c2)c(C)c1 | solubility kinetic | = | 4.5
CC(=O)Nc1ccc(NC(=O)c2ccc(-c3ccccc3Cl)o2)cc1 | solubility kinetic | = | 0.5
O=C1C2C3C=CC(CC3)C2C(=O)N1c1ccc(Cl)cc1Cl (stereo not given) | solubility kinetic | = | 9.7
COc1ccc(Nc2nc3ccccc3c(=O)[nH]2)cc1 | solubility kinetic | = | 24.4
CC(C)N1CCN(CCCc2ccccc2)CC1CCO (stereo not given) | solubility kinetic | > | 43.6

* * *

# experimental.context: buffer; pH 7.4; 200.0 µM
In this section, each of the compounds is paired with its reported solubility kinetic.

compound | result.comparator | solubility kinetic [µg/mL]
Cc1noc(C)c1COc1ccc(C(=O)NCc2cccs2)cc1 | = | 16.5
CN1CCN(c2nc3c(c(=O)n(C)c(=O)n3C)n2Cc2ccccc2F)CC1 | > | 58
C#CC(C)OC(=O)Nc1cnccc1C(F)(F)F (configuration not stated) | = | 36
CCN(CC(=O)NCc1ccco1)S(=O)(=O)c1ccc(OC)cc1 | > | 52.9
CSc1ccc(CN2C(=O)NC3(CCCCCCC3)C2=O)cc1 | = | 5.6
Cc1ccc(NC(=O)N2CCCC(c3ccccc3)C2)cc1 (configuration not stated) | = | 1.6
CN1CCN(C(=S)NC(=O)/C=C/c2cccs2)CC1 | = | 41.9
CNC(=O)O/N=C(\N)Cc1csc2ccccc12 | = | 39.2
CN(CC(=O)NCc1ccco1)S(=O)(=O)c1ccc(F)cc1 | > | 49
Cc1cc(C(=O)COC(=O)C2CC2)c(C)n1-c1ccc(F)cc1 | = | 12.9
O=S(=O)(NCc1cn2ccccc2n1)c1ccccc1F | > | 45.8
CN(C)C(=O)Oc1cccc([N+](C)(C)C)c1.COS(=O)(=O)[O-] | > | 50.2

* * *

# experimental.context: buffer; pH 7.4; 200.0 µM
Answer 0.0 if solubility kinetic is under 20 µg/mL, and 1.0 if it is 20 µg/mL or more.

compound | group
COC(=O)c1sccc1NC(=O)COc1ccc(F)cc1Cl | 0.0
O=C(NCc1ccccc1C(F)(F)F)C1CCC(=O)N(C2CC2)C1 (stereo not drawn) | 1.0
C=CCNC(=O)CC1Nc2c3ccccc3nc(=S)n2C1=O (stereo not drawn) | 1.0
COc1ccccc1N1CCN(CC(=O)Nc2nccs2)CC1 | 1.0
O=C(NC(=O)N1CCCCCC1)c1ccc(Cl)cc1 | 1.0
O=C(Nc1ccc(F)cc1)c1nc[nH]c1C(=O)O | 1.0
O=C(CN1CCc2cc3c(cc2C1)OCCCO3)Nc1ccccc1 | 0.0
O=C1CN(/N=C/c2ccc([N+](=O)[O-])o2)C(=O)N1 | 1.0
Cc1ccc(C(=O)Nc2cccc3[nH]c(C(F)(F)F)nc23)cc1 | 0.0
CN(Cc1ccccc1)/C(=N/O)c1cccc(Cl)c1 | 1.0
N#CCCN(C(=O)CSc1nc2ccccc2c(=O)[nH]1)c1ccc(F)cc1 | 1.0
O=c1cc(-c2ccccc2)nc(Cc2c(Cl)cccc2Cl)[nH]1 | 0.0
O=C(Cn1c(=O)oc2ccccc21)Nc1ccc(F)c(F)c1 | 0.0
CC(Nc1cccc(F)c1)C(=O)Nc1ccc(S(N)(=O)=O)cc1 (stereo not drawn) | 1.0
O=C(NCCC(=O)N1CCN(C(=O)c2ccco2)CC1)c1ccccc1Cl | 1.0
CCN(CC)C(=O)c1ccc(NC(=O)c2cccc(C(F)(F)F)c2)cc1 | 0.0
Cc1ccc(-c2nnc(SCC(=O)NC3CCCC3)n2N)cc1 | 1.0
Clc1c2c(nc3ccccc13)CCC2 | 0.0
CCOC(=O)CN1C(=O)c2ccccc2Sc2ncccc21 | 1.0
O=C(NCCOc1ccc(Cl)cc1)C1CCCCC1 | 0.0
COc1ccc(C(=O)NCCCOc2cccc(NC(C)=O)c2)cc1 | 1.0
ONC(=Nc1cccc(C(F)(F)F)c1)c1cccnc1 | 1.0
CC1(C)Cc2nc3scc(NC(=O)c4ccccc4)c3cc2CO1 | 0.0
CCN(CC)S(=O)(=O)c1cccc(NC(=O)CC2CCCC2)c1 | 1.0
Cc1ccc(C(=O)OCC(=O)NCC2CCCO2)c(C)c1 (stereo not drawn) | 1.0
Cc1nc2ccccc2c(=O)n1-c1ccncc1 | 1.0
CC1(C)Oc2ccc(C(=O)Nc3ccccc3)cc2N(CC#N)C1=O | 1.0
COc1ccc(CC(=O)NCCc2cnc[nH]2)cc1 | 1.0
Cc1ccc(C)c(C(=O)COc2ncnc3ccccc23)c1 | 0.0
O=C(NC(O)C(=O)c1ccccc1)c1ccccn1 (stereo not drawn) | 1.0
N#Cc1ccc(NC(=O)CN2CCN(c3ccccn3)CC2)cc1 | 0.0
COc1cc(NC(=O)COC(=O)c2ccc([N+](=O)[O-])s2)cc(OC)c1OC | 0.0
Cn1c(=O)n(CC(N)=O)c(=O)c2c1nc(Br)n2Cc1ccccc1 | 1.0
COc1ccc(C(C#N)c2nc3ccccc3nc2Cl)cc1 (stereo not drawn) | 0.0
COc1ccccc1NS(=O)(=O)c1cc(NC(=O)c2cc(F)c(F)c(F)c2F)ccc1N1CCOCC1 | 0.0
Cc1cc(C)c(OCCOCCN2CCCC2)c(C)c1 | 1.0
O=C(NCCCNC(=O)c1ccco1)c1ccc(F)cc1 | 1.0
O=[N+]([O-])c1cccc(Oc2cnccn2)c1 | 1.0
O=C1C(=O)N(CCCc2ccccc2)c2ccccc21 | 1.0
CC(=O)c1cccc(N2C(=O)CC(N3CCN(S(=O)(=O)c4ccccc4F)CC3)C2=O)c1 (stereo not drawn) | 1.0
CC(C)C(=O)Nc1ccc(NC(=O)CCc2ccccc2)cn1 | 1.0
O=C(O)COCC(=O)NCc1csc2ccc(Cl)cc12 | 1.0
CN1C(=O)c2ccccc2N(C)C1c1ccccc1Cl (stereo not drawn) | 1.0
Cc1nc2c(c(=O)c3ccccc3n2C)c(=O)n1-c1ccc(F)cc1 | 0.0
CCOC(=O)C1CCN(C/C=C/c2ccccc2[N+](=O)[O-])CC1 | 1.0
O=[N+]([O-])c1ccc(Cl)cc1NCC1CCCO1 (stereo not drawn) | 1.0
COc1ccc(NC(=O)CN2CCN(CC#N)CC2)cc1 | 1.0
O=C(/C=C/c1cccc([N+](=O)[O-])c1)N1CCN(c2ccccn2)CC1 | 0.0
